Reported composite z-score values for the following compounds.
Molecular target: Pro-neuregulin-1, membrane-bound isoform (Homo sapiens) (UniProt Q02297)
Sequence (Q02297 whole entry, looked up, canonical isoform): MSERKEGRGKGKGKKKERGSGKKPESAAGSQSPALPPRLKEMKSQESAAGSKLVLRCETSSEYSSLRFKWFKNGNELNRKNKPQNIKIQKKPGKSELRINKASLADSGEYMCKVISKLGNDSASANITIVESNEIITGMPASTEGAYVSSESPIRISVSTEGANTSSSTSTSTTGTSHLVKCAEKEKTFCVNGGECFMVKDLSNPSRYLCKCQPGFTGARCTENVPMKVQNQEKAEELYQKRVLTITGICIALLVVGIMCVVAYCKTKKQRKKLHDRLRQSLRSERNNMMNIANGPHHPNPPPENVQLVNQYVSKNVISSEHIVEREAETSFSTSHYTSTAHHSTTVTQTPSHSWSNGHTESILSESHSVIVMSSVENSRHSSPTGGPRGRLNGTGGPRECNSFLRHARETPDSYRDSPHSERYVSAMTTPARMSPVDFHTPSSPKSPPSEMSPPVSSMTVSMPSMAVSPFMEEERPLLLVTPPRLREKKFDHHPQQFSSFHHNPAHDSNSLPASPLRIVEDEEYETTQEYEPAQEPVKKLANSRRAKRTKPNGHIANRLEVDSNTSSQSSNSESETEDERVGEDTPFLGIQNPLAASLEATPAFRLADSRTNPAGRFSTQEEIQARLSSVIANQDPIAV
Experiment: small molecules binding neuregulin-1 protein – biochemical, small-molecule microarray, fluorescence 635/667, psychiatric disease protein project, primary screen (AID 1075);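 note: score combines 667 nm spot fluorescence with signal to noise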
Conditions: NRG1 binding, 635 nm fluorescence, higher = more signal
No unit in the answer, only the number.

INSERT INTO results (compound, parameter, recorded_number) VALUES
  ('COc1ccc([Si](C)(C)[C@@H]2[C@@H](CC(=O)N3Cc4ccccc4C[C@H]3CO)O[C@]3(C(=O)N(Cc4cccc(N5CCC5=O)c4)c4ccccc43)[C@H]2C)cc1', 'composite z-score', 0.592);

Can you share its composite z-score? I mean this compound: "CCOC(=O)C[C@H]1[C@H](OC(=O)c2cc3ccccc3oc2=O)[C@@H](NC(=O)CC(C)C)c2cc(OCCCO)ccc2N1C(=O)c1ccccc1"
-0.0698

Can you share its composite z-score? I mean this compound: O=C1OCCC/C=C\[C@H]2OC34C=CCN(c5ccc6ccccc6c5)C(=O)[C@H]3N(CCCCCO)C(=O)[C@@H]4C12 (some centres undefined)
-0.634

Can you share its composite z-score? I mean this compound: O=C1NC(=O)C2C1C=CC(C(O)C1CC=CCC1)N2Nc1ccccn1 (centres undefined)
-0.0625

----------
Reported z-score values for the following molecules.
Test: S6 kinase pathway phospho-S6 level changes – cell-based, A549, cytoblot, luminescence, serum-stimulated, primary screen (AID 1158);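 note: serum-stimulated A549 lung adenocarcinoma cells; signal is phosphorylated S6 detected by cytoblot immunostaining with HRP secondary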
Conditions: 5 h, higher = more signal
No unit in the answer, only the number.

INSERT INTO assay_data (molecule, parameter, recorded_number) VALUES
  ('COc1ccc([Si](C)(C)[C@H]2[C@H](CCO)O[C@@]3(C(=O)N(Cc4ccccc4)c4ccc(N5CCCCC5=O)cc43)[C@@H]2C)cc1', 'z-score', 0.204),
  ('COC(=O)[C@@]1(Cc2ccc(OC)cc2)[C@H]2c3cc(C(=O)N4CCCC4)n(Cc4nc5ccccc5[nH]4)c3C[C@H]2CN1C(=O)c1ccccc1', 'z-score', -0.0242),
  ('O=C(NC1CC1)[C@@H]1c2ccccc2C(=O)N(Cc2cc(F)cc(C(F)(F)F)c2)[C@H]1c1ccc(CO)cc1', 'z-score', -0.185),
  ('O=C1C2C=CC(C(O)c3ccc(F)cc3)N(Nc3ccc([N+](=O)[O-])cc3)C2C(=O)N1c1ccccc1 (stereo unspecified)', 'z-score', -0.454),
  ('O=C(CS)NCCCCCNC(=O)[C@H]1C[C@H]2C(=O)NCC(=O)N2[C@H]1c1cccc(OCCO)c1', 'z-score', -0.61);

Continue with the molecule presented below.
Can you share its z-score? I mean this molecule: "CCOC(=O)C[C@H]1[C@H](OC(=O)c2ccc(-c3ccccc3)cc2)[C@@H](NC(=O)c2ccccc2)c2cc(OCCCO)ccc2N1C(=O)Cc1ccc(OC)cc1"
-0.0916

----------
Experiment: small molecules captured by biotinylated probe aFST – biochemical, small-molecule microarray, fluorescence 635/667, stem cell growth factor project, primary screen (AID 1086);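 note: score merges 667 nm fluorescence with signal-to-noise of each printed compound spot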
Conditions: higher = more signal
Reported composite z-score values for the following molecules.
No unit in the answer, only the number.

INSERT INTO measurements (molecule, parameter, recorded_number) VALUES
  ('O=C1O[C@@H](c2ccccc2)[C@@H](c2ccccc2)N2[C@@H](c3ccccc3OCCO)[C@]3(C(=O)Nc4ccc(C#CC5(O)CCCCCC5)cc43)[C@@H](C(=O)N3CCN(c4ncccn4)CC3)[C@H]12', 'composite z-score', -0.0815),
  ('O=C1NC(=O)C2C1C=CC(C(O)c1ccc(-c3ccccc3)s1)N2Nc1ccc(Cl)cc1Cl (stereo unspecified)', 'composite z-score', 1.16),
  ('C=CCN(Cc1ccccc1)C(=O)C(c1cccs1)N(C(=O)/C=C\C(=O)O)c1ccc(CCOCCO)cc1 (stereo unspecified)', 'composite z-score', -1.35);

Continue with the molecule presented below.
Can you share its composite z-score? I mean this molecule: "COC(=O)c1c(CC[C@@H](CO)NC(=O)NCCc2c[nH]c3ccccc23)oc(C(=O)Cc2ccccc2)c1C(=O)OC"
0.224
